System: 349418-098-R-PDC spheroids, viability, % test/control
Experiment: Anticancer human tumor 349418-098-R-PDC patient-derived lung adenocarcinoma cell line growth inhibition [IpAb]; active means viability on the fitted dose curve at most 10% of control; inactive means the rest
Conditions: second compound 0.01 µM; first compound 0.0316 µM; spheroids with HUVEC and MSC
Classes used: yes (1) (active), no (0) (inactive)

| molecule | assignedCategory |
| --- | --- |
| Cn1ncc(Cl)c1-c1cc(C(=O)NC(CN)Cc2cccc(F)c2)sc1Cl (stereo not given) + CCN1CCN(Cc2ccc(Nc3ncc(F)c(-c4cc(F)c5nc(C)n(C(C)C)c5c4)n3)nc2)CC1 | no (0) |
| Cn1ncnc1[C@H]1c2n[nH]c(=O)c3cc(F)cc(c23)N[C@@H]1c1ccc(F)cc1 + CCN1CCN(Cc2ccc(Nc3ncc(F)c(-c4cc(F)c5nc(C)n(C(C)C)c5c4)n3)nc2)CC1 | no (0) |
| CC1(C)CCC(CN2CCN(c3ccc(C(=O)NS(=O)(=O)c4ccc(NCC5CCOCC5)c([N+](=O)[O-])c4)c(Oc4cnc5[nH]ccc5c4)c3)CC2)=C(c2ccc(Cl)cc2)C1 + CCN1CCN(Cc2ccc(Nc3ncc(F)c(-c4cc(F)c5nc(C)n(C(C)C)c5c4)n3)nc2)CC1 | no (0) |
| C=CCn1c(=O)c2cnc(Nc3ccc(N4CCN(C)CC4)cc3)nc2n1-c1cccc(C(C)(C)O)n1 + CCN1CCN(Cc2ccc(Nc3ncc(F)c(-c4cc(F)c5nc(C)n(C(C)C)c5c4)n3)nc2)CC1 | no (0) |
| Cc1nc(NC(=O)N2CCCC2C(N)=O)sc1-c1ccnc(C(C)(C)C(F)(F)F)c1 (stereo not given) + CCN1CCN(Cc2ccc(Nc3ncc(F)c(-c4cc(F)c5nc(C)n(C(C)C)c5c4)n3)nc2)CC1 | no (0) |
| CC(C)n1nc(-c2ccc3oc(N)nc3c2)c2c(N)ncnc21 + CCN1CCN(Cc2ccc(Nc3ncc(F)c(-c4cc(F)c5nc(C)n(C(C)C)c5c4)n3)nc2)CC1 | yes (1) |
| CCCS(=O)(=O)Nc1ccc(F)c(C(=O)c2c[nH]c3ncc(-c4ccc(Cl)cc4)cc23)c1F + CCN1CCN(Cc2ccc(Nc3ncc(F)c(-c4cc(F)c5nc(C)n(C(C)C)c5c4)n3)nc2)CC1 | no (0) |
| Cn1nccc1Nc1nccc(-c2ccn(C(CO)c3ccc(Cl)c(F)c3)c(=O)c2)n1 (stereo not given) + CCN1CCN(Cc2ccc(Nc3ncc(F)c(-c4cc(F)c5nc(C)n(C(C)C)c5c4)n3)nc2)CC1 | no (0) |
| COc1c(OCCCN2CCOCC2)ccc2c3n(c(=NC(=O)c4cnc(N)nc4)nc12)CCN3 + CCN1CCN(Cc2ccc(Nc3ncc(F)c(-c4cc(F)c5nc(C)n(C(C)C)c5c4)n3)nc2)CC1 | yes (1) |
| C=CC(=O)N1CCN(c2nc(=O)n(-c3c(C)ccnc3C(C)C)c3nc(-c4c(O)cccc4F)c(F)cc23)C(C)C1 (stereo not given) + CCN1CCN(Cc2ccc(Nc3ncc(F)c(-c4cc(F)c5nc(C)n(C(C)C)c5c4)n3)nc2)CC1 | no (0) |

###

Test system: 349418-098-R-PDC spheroids, viability, % test/control
Test: Anticancer human tumor 349418-098-R-PDC cell line growth inhibition [IpAb];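 further: spheroids exposed to compounds for 7 days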
Conditions: second compound 1 µM; first compound 0.3 µM; hits give low values; spheroids with HUVEC and MSC
Threshold 8%: viability, T/C strictly smaller gives True, otherwise False.

| compound | assignedCategory |
| --- | --- |
| CC(=O)c1c(C)c2cnc(Nc3ccc(N4CCNCC4)cn3)nc2n(C2CCCC2)c1=O + CC(C)NCC(C(=O)N1CCN(c2ncnc3c2C(C)CC3O)CC1)c1ccc(Cl)cc1 | True |
| CC(=O)c1c(C)c2cnc(Nc3ccc(N4CCNCC4)cn3)nc2n(C2CCCC2)c1=O + CCN1CCN(Cc2ccc(Nc3ncc(F)c(-c4cc(F)c5nc(C)n(C(C)C)c5c4)n3)nc2)CC1 | False |
| CC(C)(C)c1cnc(CSc2cnc(NC(=O)C3CCNCC3)s2)o1 + CCN1CCN(Cc2ccc(Nc3ncc(F)c(-c4cc(F)c5nc(C)n(C(C)C)c5c4)n3)nc2)CC1 | True |
| CC(C)(C)c1cnc(CSc2cnc(NC(=O)C3CCNCC3)s2)o1 + CC(C)NCC(C(=O)N1CCN(c2ncnc3c2C(C)CC3O)CC1)c1ccc(Cl)cc1 | True |

###

System: 349418-098-R-PDC spheroids, viability, % test/control
Experiment: Anticancer human tumor 349418-098-R-PDC cell line growth inhibition [IpAb]; active = viability on the fitted dose curve at most 10% of control; inactive = the rest;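 further: spheroids exposed to compounds for 7 days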
Conditions: second compound 0.1 µM; first compound 1 µM; spheroids with HUVEC and MSC
Classes used: active, inactive

| molecule | assignedCategory |
| --- | --- |
| COc1c(OCCCN2CCOCC2)ccc2c3n(c(=NC(=O)c4cnc(N)nc4)nc12)CCN3 + CC(C)NCC(C(=O)N1CCN(c2ncnc3c2C(C)CC3O)CC1)c1ccc(Cl)cc1 | active |
| Cn1ncc(Cl)c1-c1cc(C(=O)NC(CN)Cc2cccc(F)c2)sc1Cl (stereo not given) + CCN1CCN(Cc2ccc(Nc3ncc(F)c(-c4cc(F)c5nc(C)n(C(C)C)c5c4)n3)nc2)CC1 | active |
| C=CC(=O)N1CCN(c2nc(=O)n(-c3c(C)ccnc3C(C)C)c3nc(-c4c(O)cccc4F)c(F)cc23)C(C)C1 (stereo not given) + CCN1CCN(Cc2ccc(Nc3ncc(F)c(-c4cc(F)c5nc(C)n(C(C)C)c5c4)n3)nc2)CC1 | inactive |
| Cc1nc(NC(=O)N2CCCC2C(N)=O)sc1-c1ccnc(C(C)(C)C(F)(F)F)c1 (stereo not given) + CC(C)NCC(C(=O)N1CCN(c2ncnc3c2C(C)CC3O)CC1)c1ccc(Cl)cc1 | inactive |
| Cn1ncc(Cl)c1-c1cc(C(=O)NC(CN)Cc2cccc(F)c2)sc1Cl (stereo not given) + CC(C)NCC(C(=O)N1CCN(c2ncnc3c2C(C)CC3O)CC1)c1ccc(Cl)cc1 | inactive |

###

The molecules listed here are annotated with their viability, T/C.
System: 349418-098-R-PDC spheroids, viability, % test/control
Test: Anticancer human tumor 349418-098-R-PDC cell line growth inhibition [IpAb];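 further: spheroids exposed to compounds for 7 days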
Details: second compound 0.316 µM; first compound 0.949 µM; hits give low values; spheroids with HUVEC and MSC
readoutLabel: viability, T/C (%)

| molecule | readoutLabel | readoutUnit | measured |
| --- | --- | --- | --- |
| Cn1cnc2c(F)c(Nc3ccc(Br)cc3Cl)c(C(=O)NOCCO)cc21 + CC(C)NCC(C(=O)N1CCN(c2ncnc3c2C(C)CC3O)CC1)c1ccc(Cl)cc1 | viability, T/C | % | 10.2 |
| Cn1cnc2c(F)c(Nc3ccc(Br)cc3Cl)c(C(=O)NOCCO)cc21 + CCN1CCN(Cc2ccc(Nc3ncc(F)c(-c4cc(F)c5nc(C)n(C(C)C)c5c4)n3)nc2)CC1 | viability, T/C | % | 8.49 |
| CC(C)(C)c1cnc(CSc2cnc(NC(=O)C3CCNCC3)s2)o1 + CC(C)NCC(C(=O)N1CCN(c2ncnc3c2C(C)CC3O)CC1)c1ccc(Cl)cc1 | viability, T/C | % | 2.77 |
| CC(C)(C)c1cnc(CSc2cnc(NC(=O)C3CCNCC3)s2)o1 + CCN1CCN(Cc2ccc(Nc3ncc(F)c(-c4cc(F)c5nc(C)n(C(C)C)c5c4)n3)nc2)CC1 | viability, T/C | % | 3.36 |

###

Tested on: 349418-098-R-PDC spheroids, viability, % test/control
Experiment: Anticancer human tumor 349418-098-R-PDC cell line growth inhibition [IpAb]; active = viability on the fitted dose curve at most 10% of control; inactive = the rest;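 further: spheroids exposed to compounds for 7 days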
Conditions: second compound 0.316 µM; first compound 1 µM; spheroids with HUVEC and MSC
Labels: 1 (yes) = active, 0 (no) = inactive

| compound | measuredOn | assignedCategory |
| --- | --- | --- |
| COc1c(OCCCN2CCOCC2)ccc2c3n(c(=NC(=O)c4cnc(N)nc4)nc12)CCN3 + CCN1CCN(Cc2ccc(Nc3ncc(F)c(-c4cc(F)c5nc(C)n(C(C)C)c5c4)n3)nc2)CC1 | 349418-098-R-PDC spheroids, viability, % test/control | 1 (yes) |
| Cn1nccc1Nc1nccc(-c2ccn(C(CO)c3ccc(Cl)c(F)c3)c(=O)c2)n1 (stereo not given) + CCN1CCN(Cc2ccc(Nc3ncc(F)c(-c4cc(F)c5nc(C)n(C(C)C)c5c4)n3)nc2)CC1 | 349418-098-R-PDC spheroids, viability, % test/control | 0 (no) |
| COc1c(OCCCN2CCOCC2)ccc2c3n(c(=NC(=O)c4cnc(N)nc4)nc12)CCN3 + CC(C)NCC(C(=O)N1CCN(c2ncnc3c2C(C)CC3O)CC1)c1ccc(Cl)cc1 | 349418-098-R-PDC spheroids, viability, % test/control | 1 (yes) |
| Cn1nccc1Nc1nccc(-c2ccn(C(CO)c3ccc(Cl)c(F)c3)c(=O)c2)n1 (stereo not given) + CC(C)NCC(C(=O)N1CCN(c2ncnc3c2C(C)CC3O)CC1)c1ccc(Cl)cc1 | 349418-098-R-PDC spheroids, viability, % test/control | 0 (no) |
| CC1(C)CCC(CN2CCN(c3ccc(C(=O)NS(=O)(=O)c4ccc(NCC5CCOCC5)c([N+](=O)[O-])c4)c(Oc4cnc5[nH]ccc5c4)c3)CC2)=C(c2ccc(Cl)cc2)C1 + CC(C)NCC(C(=O)N1CCN(c2ncnc3c2C(C)CC3O)CC1)c1ccc(Cl)cc1 | 349418-098-R-PDC spheroids, viability, % test/control | 0 (no) |

All figures here come from PubChem BioAssay AID2060340.
